Origin of values: ChEMBL document CHEMBL3301458

molecular target: hERG (Kv11.1, KCNH2) (Homo sapiens, UniProt Q12809); assay: in vitro
Sequence (Q12809 whole entry): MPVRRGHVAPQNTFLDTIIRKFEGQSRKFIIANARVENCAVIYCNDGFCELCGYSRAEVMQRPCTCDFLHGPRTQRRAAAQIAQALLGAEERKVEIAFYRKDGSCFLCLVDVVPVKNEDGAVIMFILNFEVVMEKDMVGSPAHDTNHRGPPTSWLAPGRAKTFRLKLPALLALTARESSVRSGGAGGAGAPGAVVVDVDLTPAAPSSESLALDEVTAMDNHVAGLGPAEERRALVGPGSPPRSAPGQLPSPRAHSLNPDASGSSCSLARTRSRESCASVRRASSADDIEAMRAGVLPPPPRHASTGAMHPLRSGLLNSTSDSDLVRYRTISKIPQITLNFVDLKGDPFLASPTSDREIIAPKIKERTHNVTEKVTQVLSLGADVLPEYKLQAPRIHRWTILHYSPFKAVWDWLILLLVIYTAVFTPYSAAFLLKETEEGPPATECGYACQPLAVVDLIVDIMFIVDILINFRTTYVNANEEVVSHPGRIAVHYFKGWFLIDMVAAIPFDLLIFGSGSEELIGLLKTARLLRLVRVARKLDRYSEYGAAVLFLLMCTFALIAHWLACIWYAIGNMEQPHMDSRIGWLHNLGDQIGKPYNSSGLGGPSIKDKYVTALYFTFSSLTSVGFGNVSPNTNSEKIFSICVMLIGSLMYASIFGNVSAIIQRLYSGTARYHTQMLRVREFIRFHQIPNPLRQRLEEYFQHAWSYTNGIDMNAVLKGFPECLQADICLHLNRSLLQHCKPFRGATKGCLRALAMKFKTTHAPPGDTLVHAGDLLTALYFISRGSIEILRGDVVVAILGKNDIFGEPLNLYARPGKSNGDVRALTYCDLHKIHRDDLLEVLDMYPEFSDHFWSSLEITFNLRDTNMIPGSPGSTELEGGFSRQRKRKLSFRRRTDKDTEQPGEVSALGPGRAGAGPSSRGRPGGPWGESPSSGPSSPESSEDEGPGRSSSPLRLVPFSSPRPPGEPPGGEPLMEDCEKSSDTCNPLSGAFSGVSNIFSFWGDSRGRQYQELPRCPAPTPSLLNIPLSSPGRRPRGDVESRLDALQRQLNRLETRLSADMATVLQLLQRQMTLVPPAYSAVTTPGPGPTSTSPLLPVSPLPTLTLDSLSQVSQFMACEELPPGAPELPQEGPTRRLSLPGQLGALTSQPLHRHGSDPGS
Description: MMV: Malaria Box compounds were tested for inhibition of the human ether a go-go related gene (hERG), Kv11.1 channel, using IonWorks 384-well patch clamp electrophysiology at 11.1uM (3 independent assay plates up to 12 cells per concentration).
Decide by inhibition at 11.1 µM: equal to or exceeding 50% means label 1, less means label 0.

{"molecule": "O=C(NC1CCN(Cc2ccccc2)CC1)c1cc2nc(-c3ccc(Cl)s3)cc(C(F)(F)F)n2n1", "cat": "label 1"}
{"molecule": "COc1ccc2nc(C)cc(Nc3cccc(O)c3)c2c1", "cat": "label 1"}
{"molecule": "COc1ccc(C=C2SC(Nc3ccc(F)cc3)=NC2=O)c(OC)c1", "cat": "label 1"}

Task: Is inhibition at 11.1 µM at least 50%? Consider CC(=O)c1sc(NC(=O)Nc2ccc(C)cc2C)nc1C
Result: label 0

Task: Is inhibition at 11.1 µM at least 50%? Consider COc1ccc(-c2cn3c(C(=O)Nc4ccccc4Cl)c(-c4ccccc4)c4c3n2CCCC4)cc1
Result: label 1

Task: Is inhibition at 11.1 µM at least 50%? Consider COc1ccc2nc(N)nc(C)c2c1
Result: label 0

Task: Is inhibition at 11.1 µM at least 50%? Consider COc1ccc(CCNC(=O)c2cc(S(=O)(=O)N3CC(C)CC(C)C3)ccc2Sc2ccc(F)cc2)cc1OC (centres undefined)
Result: label 0

Task: Is inhibition at 11.1 µM at least 50%? Consider CCCCCn1c(=N)n(CC(O)COc2cccc(C)c2)c2ccccc21 (centres undefined)
Result: label 1

Task: Is inhibition at 11.1 µM at least 50%? Consider O=C(Cc1ccccc1)NC(c1ccc(Cl)cc1)c1c(O)ccc2ccccc12 (centres undefined)
Result: label 0

Task: Is inhibition at 11.1 µM at least 50%? Consider CCOC(=O)C1=CN(C)C=C(C(=O)OCC)C1c1cc(Br)c(OCC)c(OC)c1
Result: label 1

Task: Is inhibition at 11.1 µM at least 50%? Consider COc1ccc(/C=C2/SC(=Nc3ccccc3)NC2=O)cc1
Result: label 0

Task: Is inhibition at 11.1 µM at least 50%? Consider O=C(NC1CCN(Cc2ccccc2)CC1)c1cc(-c2ccncc2)nc2ccc(Cl)cc12
Result: label 1

Task: Is inhibition at 11.1 µM at least 50%? Consider O=C1c2ccccc2-c2nnc(-c3ccc(Br)cc3)cc21
Result: label 0

* * *

molecular target: hERG (Kv11.1, KCNH2) (Homo sapiens); test: in vitro
Description: MMV: Malaria Box compounds were tested for inhibition of the human ether a go-go related gene (hERG), Kv11.1 channel, using IonWorks 384-well patch clamp electrophysiology at 1.1uM (3 independent assay plates up to 12 cells per concentration).
recorded_endpoint: inhibition at 1.1 µM (%)
One number for each entry, in %.

{"compound": "CN1CCN(c2nc(Nc3ccc(O)cc3)nc3ccccc23)CC1", "tested_target": "hERG (Kv11.1, KCNH2) (Homo sapiens)", "observed_result": 31}
{"compound": "CCCCCCn1c(=N)n(CC(O)COc2cccc(C)c2)c2ccccc21 (stereo unspecified)", "tested_target": "hERG (Kv11.1, KCNH2) (Homo sapiens)", "observed_result": 57}
{"compound": "Oc1ccc2ccccc2c1CNc1nc2ccccc2[nH]1", "tested_target": "hERG (Kv11.1, KCNH2) (Homo sapiens)", "observed_result": -5}
{"compound": "COc1ccc(CCN2C(=O)c3[nH]nc(-c4cc(Cl)c(C)cc4O)c3C2c2ccccc2F)cc1 (stereo unspecified)", "tested_target": "hERG (Kv11.1, KCNH2) (Homo sapiens)", "observed_result": 51}
{"compound": "Cc1cc(Nc2ccc3ccccc3c2)n2ncnc2n1", "tested_target": "hERG (Kv11.1, KCNH2) (Homo sapiens)", "observed_result": 9}
{"compound": "Nc1ccc(-c2nc3cc(Oc4ccc(Oc5ccc6[nH]c(-c7ccc(N)cc7)nc6c5)cc4)ccc3[nH]2)cc1", "tested_target": "hERG (Kv11.1, KCNH2) (Homo sapiens)", "observed_result": 18}

For the 7 compounds below, give their inhibition at 1.1 µM values.
1. COc1ccc(-n2ccnc2SCC(=O)Nc2cc(C)ccc2C)c(OC)c1
2. CCN(CC)CCn1c(=N)n(CC(O)c2ccc(Cl)c(Cl)c2)c2ccccc21 (stereo unspecified)
3. Cc1ccc(F)cc1NC(=O)c1cc(Cl)ccc1Nc1ccccc1
4. O=C(NCc1ccco1)C1CCN(S(=O)(=O)c2ccc(Br)cc2)CC1
5. Cc1ccc2c(C)nc(Nc3nc(C)cc(-c4ccccc4)n3)nc2c1
6. CCOC(=O)c1cnc2c(C)cc(C)cc2c1Nc1ccc(OC)c(OC)c1
7. CC(C)CCNCC(O)Cn1c2ccccc2c2ccccc21 (stereo unspecified)

Result:
1: 5; 2: 36; 3: 5; 4: 21; 5: -1; 6: 26; 7: 2

For the 8 compounds below, give their inhibition at 1.1 µM values.
1. Cc1cc(Nc2cccc(F)c2)nc(NCc2ccccc2)n1
2. CCOC(=O)c1cnc2ccc(CC)cc2c1O
3. COc1cc(OC)c(N(C)C(=O)c2cc3c(s2)-c2ccccc2S(=O)(=O)C3)cc1Cl
4. CC(C)c1ccc(CNCC(O)c2ccccc2)cc1 (stereo unspecified)
5. CCn1c2c(c(=N)c3c1CCC3)CCCC2
6. COc1ccc(-c2c(C)nn3c(N)c(C#N)cnc23)cc1OC
7. CCCn1c(=N)c(C(=O)NC2CCCCC2)cc2c(=O)n3cccc(C)c3nc21
8. O=C(Cc1ccccc1)NC(c1ccc(Cl)cc1)c1c(O)ccc2ccccc12 (stereo unspecified)

Result:
[11, 1, 3, 15, 48, 11, 63, -2]
